# Tested on: miR-34a
# PROTOCOL DETAILS: miR-34a reporter luciferase assay in Huh7 cells
# Type: cell-based, human
# CONDITION NOTES: Homo sapiens, Huh-7, 48 h
MEASURED METRIC: IC50 (µM)
Respond numerically; units are µM and should not be typed.

What does the record list as IC50 for "COc1cc(O)c(C(=O)/C=C/c2cc(OC)c(OC)cc2OC)c(OC)c1" ? 3.8
